Source of measurements: the supplement of paper PMC6757056

B1: library; a variant is named by its letters at N, in order (parent)
chain: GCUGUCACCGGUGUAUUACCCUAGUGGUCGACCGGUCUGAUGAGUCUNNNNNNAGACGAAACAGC

Variants of: B1
PROCEDURE_SUMMARY: normalized RNA/DNA level without ligand (relative to sTRSVctl = 100) (log10 (% of sTRSVctl)); ligand: hypoxanthine (xanthine aptamer); higher = less ribozyme self-cleavage, higher mRNA level
RECORDED_CONDITIONS: HEK293T, reporter: mCherry (pCS4076), ligand present: no
Record form. Attribute: normalized RNA/DNA level without ligand (log10). Fill in for each entry.
A bare number is all that is needed in reply.

stdin: What value of measured normalized RNA/DNA level without ligand (log10) is listed for "ACGUAU" ?
stdout: 1.39

stdin: What value of measured normalized RNA/DNA level without ligand (log10) is listed for "GAAUGU" ?
stdout: 1.72

stdin: What value of measured normalized RNA/DNA level without ligand (log10) is listed for "CAAACU" ?
stdout: 1.9

stdin: What value of measured normalized RNA/DNA level without ligand (log10) is listed for "UUUGAA" ?
stdout: 1.75

stdin: What value of measured normalized RNA/DNA level without ligand (log10) is listed for "GGAUCU" ?
stdout: 1.92

stdin: What value of measured normalized RNA/DNA level without ligand (log10) is listed for "GGGAAA" ?
stdout: 1.57

stdin: What value of measured normalized RNA/DNA level without ligand (log10) is listed for "GUUGAA" ?
stdout: 1.74

stdin: What value of measured normalized RNA/DNA level without ligand (log10) is listed for "AAGUAU" ?
stdout: 1.68

stdin: What value of measured normalized RNA/DNA level without ligand (log10) is listed for "GAUGAG" ?
stdout: 1.3

stdin: What value of measured normalized RNA/DNA level without ligand (log10) is listed for "GUGGUA" ?
stdout: 1.76

stdin: What value of measured normalized RNA/DNA level without ligand (log10) is listed for "AUUCUG" ?
stdout: 1.61
